- Tested on: RARa homodimer (NR concentration 270 nM)
- assay details: PBM binding z-score (relative to random genomic background probes); higher = stronger binding; sequences stand for … in GC…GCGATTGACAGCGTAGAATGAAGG
Classes based on PBM binding z-score: b0 = under -0.07, b1 = from -0.07 up to 0.4, b2 = 0.4 and over

Answered examples (3):
ATCTCTAGGCAAGACTCAGTTCAGTGAAGAACGC ... b1
AGCATGAGGTTATTAAGATCAGGGAATTGCGGTC ... b1
ACTTGTTGGTCAGCTGAGGTCACACACAATTCGG ... b1

### Prompt Given TCTCTTAGTTGAAGGGCAACCGACGAGTCCGTTT , name the class its PBM binding z-score places it in.
### Response b2

### Prompt Given ATCTCTAGGGAACAAGTTCAGTGAAAGAGAGGAC , name the class its PBM binding z-score places it in.
### Response b1

### Prompt Given CCGACTGGGGCAAAGGTTAACATACTCAGTACGA , name the class its PBM binding z-score places it in.
### Response b1

### Prompt Given CGAACTAGGCCATCCAGGACAGTGAATACATTGA , name the class its PBM binding z-score places it in.
### Response b2

### Prompt Given ATCTCTAGGTAAAGATAGTTCAGCGAATGCAAAT , name the class its PBM binding z-score places it in.
### Response b2

### Prompt Given GCTAGCAGGCCATTTGGATCACTCAATGACGGGC , name the class its PBM binding z-score places it in.
### Response b0

### Prompt Given TCAGACAGGTGAAGGTAATTCAGGTACGCAGTCG , name the class its PBM binding z-score places it in.
### Response b1

### Prompt Given TCGAGTATGTTAGGGGCATTCAGAATGGCGTCGA , name the class its PBM binding z-score places it in.
### Response b1

### Prompt Given CCGACTGGGGCAAAGGTTACCCTACTCAGTACGA , name the class its PBM binding z-score places it in.
### Response b0

### Prompt Given TTACCAAGGTGAAGGTCGTTTATCCCTCTGTAGA , name the class its PBM binding z-score places it in.
### Response b0

### Prompt Given ACTAGCAGGCCAAGTTTGGCTCACTCAAACAAAG , name the class its PBM binding z-score places it in.
### Response b0

### Prompt Given ATATGTATGTTAGCTGGGGTCATTCAGACTAGGC , name the class its PBM binding z-score places it in.
### Response b2

### Prompt Given CCTGCTAAGTCATGGTCAGCTAATCTACAGTATG , name the class its PBM binding z-score places it in.
### Response b0

### Prompt Given CGTCCAAGGTCATTGCTAGGTCAGTGAAAGCATT , name the class its PBM binding z-score places it in.
### Response b2

### Prompt Given ATCTGTAGGTTAGCTGGGGTCATTCAGACTAGGC , name the class its PBM binding z-score places it in.
### Response b2

### Prompt Given CCGAATGGGGCAAGGTTACCATAACGCACAGCCA , name the class its PBM binding z-score places it in.
### Response b0

### Prompt Given GCTTACGGGTCAAAGGTTTTAGCATGAATAGAAT , name the class its PBM binding z-score places it in.
### Response b1
